B1: Segment polarity protein dishevelled homolog DVL-3, residues 2 to 81; numbered along this chain, Q92997 (parent)
chain: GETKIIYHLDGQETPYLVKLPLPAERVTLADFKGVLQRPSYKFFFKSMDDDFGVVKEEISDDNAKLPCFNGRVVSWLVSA

- Variants of: B1
- procedure_text: abundance fitness (aPCA) (normalised: wild type 0, dead -1); higher = more abundant; growth selection in yeast, the domain comes from the species named
- condition: Homo sapiens
Items are presented alongside their recorded abundance fitness.
Just the number, please, no unit attached.

residues	abundance fitness
GETKIIYHLDGQETPYLVKLPLPAERVTLADFKGVLQRPSYKFFFKSMDDDFGVVKEEISDDNAKLPCFNGRVVSWLASA [V78A]	-0.836
GETKIIYHLDGQETPYLVKLPLPAERVTLADFKGVLQRPSYKFFFLSMDDDFGVVKEEISDDNAKLPCFNGRVVSWLVSA [K46L]	-0.138
GETKIIYHLDGQETPYLVKLPLPAERVTLADFKGVLQRPSYPFFFKSMDDDFGVVKEEISDDNAKLPCFNGRVVSWLVSA [K42P]	-0.763
GETKIIYHLDGQETPYLVKLPLPAERVTLADFKGVLQRPSYKFFFKSMDDDFGVVGEEISDDNAKLPCFNGRVVSWLVSA [K56G]	-0.63
GETKIIYHLDGQETPYLVKLPLPKERVTLADFKGVLQRPSYKFFFKSMDDDFGVVKEEISDDNAKLPCFNGRVVSWLVSA [A24K]	-0.174

Here is the next item to consider.
Q) Give its abundance fitness value. Item: GETKIIYHLDGQETPYLVKLPLPAERVTLADFKGVLQRPSYKFFFKSMDDDFGYVKEEISDDNAKLPCFNGRVVSWLVSA [V54Y]
A) -0.088
